Source listed as ChEMBL document CHEMBL3414433.

# ASSAY METHOD TEXT: Drug uptake in Lewis rat blood at 22 mg/kg, po measured after 24 hrs
# Assay type: ADME, organism-based
# Design: dose 22 mg/kg, route oral
# EXPERIMENTAL CONDITIONS: read-out: Drug uptake
REPORTED METRIC: concentration at 24 h
Kindly format the answer as number then unit.

Exercise: Report concentration at 24 h, nothing else, for this compound: NC(=O)c1nnc(N[C@@H]2CCCC[C@@H]2N)nc1Nc1cccc2cc[nH]c12
Key: 300 nM

====

# ASSAY METHOD TEXT: Drug uptake in Lewis rat blood at 22 mg/kg, po measured after 2 hrs
# Assay type: ADME, organism-based
# Set-up: dose 22 mg/kg, route oral
# EXPERIMENTAL CONDITIONS: read-out: Drug uptake
REPORTED METRIC: concentration at 2 h (nM)
Please respond with the number in nM and leave the unit unwritten.

Exercise: Report concentration at 2 h, nothing else, for this compound: NC(=O)c1nnc(N[C@@H]2CCCC[C@@H]2N)nc1Nc1cccc2cc[nH]c12
Key: 900

====

# ASSAY METHOD TEXT: Drug uptake in blood of Lewis rat collagen-induced arthritis model at 10 mg/kg, po qd administered on day 15 post immunization measured at 24 hrs on day 18
# Assay type: ADME, organism-based
# Set-up: dose 10 mg/kg, route oral
# EXPERIMENTAL CONDITIONS: read-out: Drug uptake
REPORTED METRIC: concentration at 24 h (nM)
Please respond with the number in nM and leave the unit unwritten.

Exercise: Report concentration at 24 h, nothing else, for this compound: NC(=O)c1nnc(N[C@@H]2CCCC[C@@H]2N)nc1Nc1cccc2cc[nH]c12
Key: 156

====

Reported IC50 values for the following compounds.
# SYSTEM: Tyrosine-protein kinase SYK (Homo sapiens, UniProt P43405)
Please respond with the number in nM and leave the unit unwritten.

Exercise: Provide IC50, recorded with Tyrosine-protein kinase SYK (Homo sapiens, UniProt P43405), of NC(=O)c1ncc(N[C@@H]2CCCC[C@@H]2N)nc1Nc1cccc(-n2nccn2)c1
Key: 1

====

# SYSTEM: Serine/threonine-protein kinase PAK 6 (Homo sapiens)
# Sequence (Q9NQU5 whole entry): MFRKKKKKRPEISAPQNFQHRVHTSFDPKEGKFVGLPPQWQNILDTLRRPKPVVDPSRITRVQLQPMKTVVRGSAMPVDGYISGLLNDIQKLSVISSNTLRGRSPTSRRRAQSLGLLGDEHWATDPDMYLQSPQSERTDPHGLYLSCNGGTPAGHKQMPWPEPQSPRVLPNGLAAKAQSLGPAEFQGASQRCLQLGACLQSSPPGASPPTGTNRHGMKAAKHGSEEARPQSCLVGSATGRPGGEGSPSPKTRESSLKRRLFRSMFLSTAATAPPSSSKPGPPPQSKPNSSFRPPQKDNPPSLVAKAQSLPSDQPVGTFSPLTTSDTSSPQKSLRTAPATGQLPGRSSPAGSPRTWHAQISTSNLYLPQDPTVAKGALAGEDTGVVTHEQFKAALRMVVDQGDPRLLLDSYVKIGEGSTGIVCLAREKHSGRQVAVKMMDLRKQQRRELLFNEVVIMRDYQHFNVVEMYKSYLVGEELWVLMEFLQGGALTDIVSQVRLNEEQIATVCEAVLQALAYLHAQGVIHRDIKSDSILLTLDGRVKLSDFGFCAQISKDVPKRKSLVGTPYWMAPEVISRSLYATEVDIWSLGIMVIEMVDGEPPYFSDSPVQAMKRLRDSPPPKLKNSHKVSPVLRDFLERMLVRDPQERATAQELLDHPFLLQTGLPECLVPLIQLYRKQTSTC
REPORTED METRIC: Kd
Kindly format the answer as number then unit.

Exercise: Provide Kd, recorded with Serine/threonine-protein kinase PAK 6 (Homo sapiens), of NC(=O)c1nnc(N[C@@H]2CCCC[C@@H]2N)nc1Nc1cccc2cc[nH]c12
Key: 110 nM

====

# SYSTEM: Mitogen-activated protein kinase kinase kinase 2 (Homo sapiens, UniProt Q9Y2U5)
# Sequence (Q9Y2U5 whole entry): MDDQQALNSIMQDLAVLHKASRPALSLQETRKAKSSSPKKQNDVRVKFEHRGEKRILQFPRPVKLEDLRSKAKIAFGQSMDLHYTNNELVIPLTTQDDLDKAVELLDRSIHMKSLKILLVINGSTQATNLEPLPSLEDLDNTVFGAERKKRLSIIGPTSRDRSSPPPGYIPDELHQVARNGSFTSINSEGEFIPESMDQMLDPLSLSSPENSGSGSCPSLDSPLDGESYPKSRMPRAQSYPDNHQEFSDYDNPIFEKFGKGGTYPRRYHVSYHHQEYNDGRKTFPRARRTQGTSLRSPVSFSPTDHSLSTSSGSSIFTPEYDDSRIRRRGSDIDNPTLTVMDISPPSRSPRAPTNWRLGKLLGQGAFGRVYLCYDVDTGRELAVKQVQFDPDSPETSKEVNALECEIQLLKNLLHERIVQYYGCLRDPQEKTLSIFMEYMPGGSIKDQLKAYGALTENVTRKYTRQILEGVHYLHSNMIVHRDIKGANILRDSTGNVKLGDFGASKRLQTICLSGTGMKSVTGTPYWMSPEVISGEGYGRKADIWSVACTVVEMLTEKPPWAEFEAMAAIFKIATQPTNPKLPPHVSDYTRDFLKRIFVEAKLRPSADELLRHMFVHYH
# ASSAY METHOD TEXT: Competitive binding affinity to human MAP3K2
REPORTED METRIC: Kd (nM)
Please respond with the number in nM and leave the unit unwritten.

Exercise: Report Kd, nothing else, for this molecule: NC(=O)c1nnc(N[C@@H]2CCCC[C@@H]2N)nc1Nc1cccc2cc[nH]c12
Key: 140

====

As an illustration, consider measured IC50 for compounds on Tyrosine-protein kinase SYK (Homo sapiens).
Please respond with the number in µM and leave the unit unwritten.

In the examples that follow, each entry is paired with its recorded IC50.
NC(=O)c1cnc(N[C@@H]2CCCC[C@@H]2N)nc1Nc1cccc2cc[nH]c12: 0.094
NC(=O)c1nnc(N[C@@H]2CCCC[C@@H]2N)nc1Nc1cccc2cc[nH]c12: 0.035
NC(=O)c1ccc(N[C@@H]2CCCC[C@@H]2N)nc1Nc1cccc(-n2nccn2)c1: 0.019
NC(=O)c1ccc(N[C@@H]2CCCC[C@@H]2N)nc1Nc1cccc2cc[nH]c12: 0.165

Exercise: Provide IC50, recorded with Tyrosine-protein kinase SYK (Homo sapiens), of NC(=O)c1ncc(N[C@@H]2CCCC[C@@H]2N)nc1Nc1cccc2cc[nH]c12
Key: 0.005
